PROTOCOL DESCRIPTION: soluble on expression in E. coli; label from the status in PepcDB or PDB records
RECORDED METRIC: soluble on expression in E. coli

MGSDKIHHHHHHMAEQMRRVARLFGDWPETIIWTCLEGTMGDIYVDDSQSPQSALALYGRQSFFGFLAGQPHRDLLKICEGKNIILVPQNQAWSDLIEEVYGDGVRFFTRYATKKDTEFDLGHLQKLVDDLPESFDMKLIDRNLYETCLVEEWSRDLVGNYIDVEQFLDLGLGCVILHKGQVVSGASSYASYSAGIEIEVDTREDYRGLGLAKACAAQLILACLDRGLYPSWDAHTLTSLKLAEKLGYELDKAYQAYEWR : not soluble
LTLKNPIMVVGLPGVGLVGKLVAEHLVDELAAERIMEVYSPHFPPQVLVNKDCTVRPVSNTIYLGKANETDVLFLVGDHQSTTAQGHYELCSLYLDIAEELKVPRIYTLGGYPTGKLTYEDTVLGVANSTELIEEIKQYGVEFRESEPSGGIVGASGLLVAFSGMRGIDAACLMGMTPGYLMDPKSAQSLLKVLCNIFGIEVNTDSLKKKAEEMENILEKLKEKEEQQNLPEVKPTEEDLRYIG : not soluble
ATPAPAAEMPGITIISASQTGNARRVAEALRDDLLAAKLNVKLVNAGDYKFKQIASEKLLIVVTSTQGEGEPPEEAVALHKFLFSKKAPKLENTAFAVFSLGDTSYEFFCQSGKDFDSKLAELGGERLLDRVDADVEYQAAASEWRARVVDALKSRAPVAAPSQSVA : soluble
MARAIHVFRTPDRFVAGTVGQPGNRTFYLQAVHDSRVVSVVLEKQQVAVLAERIGALLFEVNRRFGTPVPPEPTEIDDLSPLIMPVDAEFRVGTMGLGWDSEAQSVVVELLAVTDAEFDASVVLDDTEEGPDAVRVFLTPESARQFATRSYRVISAGRPPCPLCDEPLDPEGHICARTNGYRRDVLLGSGDDPAG : soluble

---

PROTOCOL DESCRIPTION: soluble on expression in E. coli; label from the status in PepcDB or PDB records
RECORDED METRIC: soluble on expression in E. coli

KKTVRRILGVVEIGGSGENITKTELFKYDGISDSVVKTGICMWEEDVCQIAGITRDELMDDRINRKKVLKYMVNNNINDIRKVGDVLKQYQENPENVLKNIL : not soluble
MTYYNVGKIVNTQGLQGELRVLSVTDFADERFKKKSVLALFDDKDNYIMDVEVASHRKHKNFDIVKFKGLYHINDVEKYKGCSLKIAEENLTDLDDGEFYYHEIIGLDVYEGNTLIGQVKEILQPGANDVWVVKRKGKKDLLLPYIPPVVLDVDVAAGRIEVELMEGLDDEDLEHHHHHH : soluble
GPGSMTTPNFELYGYFRSSCSGRLRIAFHLKSIPYTRHPVNLLKGEQHSDTYKSLNPTNTVPLLVVSNINNTVSPSSASFSIGQSLAALEYLEEALPTNARPLLPPISNPVARAHVRTICNIIACDVQPVTNLKIQKKVKALDGDPTVWSRDLATQGFGAVEKLLELSAGRFCVGDEITLADVCLVPAVWAAERVGMDLARFPITKRVFEEMLKEEAVQKAHWQKQEDTPEDLRA : soluble
MPKNTKKSQGNKKLEMTNKQFDDLLKEMGGLPEGMNLDPELLAVLRQATNAEFNKVAKEKYGDVPEGSDDDEEQQTSEQNKEQQQSSSSKST : not soluble
